Molecular target: mTORC1 (Homo sapiens, UniProt P42345+P62942)
Construct: endogenous in cells; host or cells: PC3 cells (human prostate adenocarcinoma)
Test: Inhibition assay for mTORC1: phosphorylation of pS6K at Thr389, AlphaLISA in PC3 cells
Format: cell-based
Details: read-out: pIC50 mTORC1 (converted)
Could you please report measured IC50 for the items listed next?

Please report the recorded IC50 for CO[C@@H]1C[C@H](C[C@@H](C)[C@@H]2CC(=O)[C@H](C)/C=C(\C)[C@@H](O)[C@@H](OC)C(=O)[C@H](C)C[C@H](C)/C=C/C=C/C=C(\C)C(OCC(C)(C)O)C[C@@H]3CC[C@@H](C)[C@@](O)(O3)C(=O)C(=O)N3CCCCC3C(=O)O2)CC[C@H]1O (some centres unmarked) [Compound 216] .
0.316 to 3.16 nM

Next entry: COC1C[C@@H]2CC[C@@H](C)[C@@](O)(O2)C(=O)C(=O)N2CCCCC2C(=O)O[C@H]([C@H](C)C[C@@H]2CC[C@@H](OCc3ccccc3)[C@H](OC)C2)CC(=O)[C@H](C)/C=C(\C)[C@@H](O)[C@@H](OC)C(=O)[C@H](C)C[C@H](C)/C=C/C=C/C=C/1C (some centres unmarked) [Compound 305]
< 0.316 nM

Next entry: CO[C@@H]1C[C@H](C[C@@H](C)[C@@H]2CC(=O)[C@H](C)/C=C(\C)[C@@H](O)[C@@H](OC)C(=O)[C@H](C)C[C@H](C)/C=C/C=C/C=C(\C)C(OCCOCCO)C[C@@H]3CC[C@@H](C)[C@@](O)(O3)C(=O)C(=O)N3CCCCC3C(=O)O2)CC[C@H]1O (some centres unmarked) [Compound 224]
0.316 to 3.16 nM

Next entry: CO[C@@H]1C[C@H](C[C@@H](C)[C@@H]2CC(=O)[C@H](C)/C=C(\C)[C@@H](O)[C@@H](OC)C(=O)[C@H](C)C[C@H](C)/C=C/C=C/C=C(\C)C(SC(C)C)C[C@@H]3CC[C@@H](C)[C@@](O)(O3)C(=O)C(=O)N3CCCCC3C(=O)O2)CC[C@H]1O (some centres unmarked) [Compound 201]
> 3.16 nM

Next entry: COC1C[C@@H]2CC[C@@H](C)[C@@](O)(O2)C(=O)C(=O)N2CCCCC2C(=O)O[C@H]([C@H](C)C[C@@H]2CC[C@@H](OC(=O)N(C)CCN(C)C)[C@H](OC)C2)CC(=O)[C@H](C)/C=C(\C)[C@@H](O)[C@@H](OC)C(=O)[C@H](C)C[C@H](C)/C=C/C=C/C=C/1C (some centres unmarked) [Compound 359]
< 0.316 nM

Next entry: COC1C[C@@H]2CC[C@@H](C)[C@@](O)(O2)C(=O)C(=O)N2CCCCC2C(=O)O[C@H]([C@H](C)C[C@@H]2CC[C@@H](OC(=O)NCCCN3CCOCC3)[C@H](OC)C2)CC(=O)[C@H](C)/C=C(\C)[C@@H](O)[C@@H](OC)C(=O)[C@H](C)C[C@H](C)/C=C/C=C/C=C/1C (some centres unmarked) [Compound 344]
< 0.316 nM

Next entry: COC1C[C@@H]2CC[C@@H](C)[C@@](O)(O2)C(=O)C(=O)N2CCCCC2C(=O)O[C@H]([C@H](C)C[C@@H]2CC[C@@H](OCCCCN3CCOCC3)[C@H](OC)C2)CC(=O)[C@H](C)/C=C(\C)[C@@H](O)[C@@H](OC)C(=O)[C@H](C)C[C@H](C)/C=C/C=C/C=C/1C (some centres unmarked) [Compound 300]
< 0.316 nM

Next entry: COC1C[C@@H]2CC[C@@H](C)[C@@](O)(O2)C(=O)C(=O)N2CCCCC2C(=O)O[C@H]([C@H](C)C[C@@H]2CC[C@@H](OCCO)[C@H](OC)C2)CC(=O)[C@H](C)/C=C(\C)[C@@H](O)[C@@H](OC)C(=O)[C@H](C)C[C@H](C)/C=C/C=C/C=C/1C (some centres unmarked) [Compound 306]
< 0.316 nM

Next entry: CO[C@H](COC1C[C@@H]2CC[C@@H](C)[C@@](O)(O2)C(=O)C(=O)N2CCCCC2C(=O)O[C@H]([C@H](C)C[C@@H]2CC[C@@H](O)[C@H](OC)C2)CC(=O)[C@H](C)/C=C(\C)[C@@H](O)[C@@H](OC)C(=O)[C@H](C)C[C@H](C)/C=C/C=C/C=C/1C)c1ccccc1 (some centres unmarked) [Compound 206]
0.316 to 3.16 nM

Next entry: COC1C[C@@H]2CC[C@@H](C)[C@@](O)(O2)C(=O)C(=O)N2CCCCC2C(=O)O[C@H]([C@H](C)C[C@@H]2CC[C@@H](OC(=O)N(C)CCCO)[C@H](OC)C2)CC(=O)[C@H](C)/C=C(\C)[C@@H](O)[C@@H](OC)C(=O)[C@H](C)C[C@H](C)/C=C/C=C/C=C/1C (some centres unmarked) [Compound 338]
< 0.316 nM

Next entry: COC1C[C@@H]2CC[C@@H](C)[C@@](O)(O2)C(=O)C(=O)N2CCCCC2C(=O)O[C@H]([C@H](C)C[C@@H]2CC[C@@H](OCCOCCOCCOCCOCCO)[C@H](OC)C2)CC(=O)[C@H](C)/C=C(\C)[C@@H](O)[C@@H](OC)C(=O)[C@H](C)C[C@H](C)/C=C/C=C/C=C/1C (some centres unmarked) [Compound 350]
< 0.316 nM

Next entry: COC1CC2CCC(C)C(O)(O2)C(=O)C(=O)N2CCCCC2C(=O)OC(C(C)CC2CCC(O[Si](C)(C)C(C)(C)C)C(OC)C2)CC(=O)C(C)C=C(C)C(O)C(OC)C(=O)C(C)CC(C)C=CC=CC=C1C (centres unmarked) [Compound 302]
> 3.16 nM

Next entry: COC1C[C@@H]2CC[C@@H](C)[C@@](O)(O2)C(=O)C(=O)N2CCCCC2C(=O)O[C@H]([C@H](C)C[C@@H]2CC[C@@H](OCCOCCOCCO)[C@H](OC)C2)CC(=O)[C@H](C)/C=C(\C)[C@@H](O)[C@@H](OC)C(=O)[C@H](C)C[C@H](C)/C=C/C=C/C=C/1C (some centres unmarked) [Compound 317]
< 0.316 nM

Next entry: COC1C[C@@H]2CC[C@@H](C)[C@@](O)(O2)C(=O)C(=O)N2CCCCC2C(=O)O[C@H]([C@H](C)C[C@@H]2CC[C@@H](OCCCN(C)C)[C@H](OC)C2)CC(=O)[C@H](C)/C=C(\C)[C@@H](O)[C@@H](OC)C(=O)[C@H](C)C[C@H](C)/C=C/C=C/C=C/1C (some centres unmarked) [Compound 363]
< 0.316 nM

Measured values drawn from patent US11702429B2 for this set.
